Assay System: MAPK1 (human) (UniProt P28482)
Sequence (P28482 whole entry, looked up): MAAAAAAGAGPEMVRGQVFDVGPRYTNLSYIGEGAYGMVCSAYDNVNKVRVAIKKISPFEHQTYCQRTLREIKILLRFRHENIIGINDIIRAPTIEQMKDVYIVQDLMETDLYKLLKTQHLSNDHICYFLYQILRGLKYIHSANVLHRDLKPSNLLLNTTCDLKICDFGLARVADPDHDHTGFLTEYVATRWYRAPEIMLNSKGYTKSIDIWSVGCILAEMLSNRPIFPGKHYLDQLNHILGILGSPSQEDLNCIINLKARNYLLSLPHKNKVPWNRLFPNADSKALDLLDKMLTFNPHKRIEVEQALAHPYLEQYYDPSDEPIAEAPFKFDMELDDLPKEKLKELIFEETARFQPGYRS
Assay Comment: radiometric filter-binding kinase assay, Kinase HotSpot
Test Context: compound 0.5 µM; ATP 10 µM
Consider the following molecules and their measured residual activity readings.

{"Molecule": "N#C/C(=C(/N)Sc1ccc(N)cc1)c1ccccc1C(F)(F)F", "residual activity": "86%"}
{"Molecule": "Cc1ccc(NC2=CC(=O)c3sc(C)nc3C2=O)cc1", "residual activity": "91.4%"}
{"Molecule": "CCN(CC)CCNC(=O)c1c(C)[nH]c(/C=C2\\C(=O)Nc3ccc(Cl)cc32)c1C", "residual activity": "97.1%"}
{"Molecule": "Cc1[nH]c(/C=C2\\C(=O)Nc3ccc(S(=O)(=O)N(C)c4cccc(Cl)c4)cc32)c(C)c1C(=O)N1CCN(C)CC1", "residual activity": "85.1%"}
{"Molecule": "CCCC(=O)Oc1ccc2[nH]c(C(=O)c3cc4ccccc4[nH]3)cc2c1", "residual activity": "105%"}
{"Molecule": "CC#CC(=O)Nc1cc2c(Nc3ccc(F)c(Cl)c3)ncnc2cn1", "residual activity": "101%"}
{"Molecule": "COc1cc2ncnc(Nc3cccc(Cl)c3)c2cc1OC", "residual activity": "91.7%"}
{"Molecule": "N#CC(C#N)=C(N)/C(C#N)=C/c1ccc(O)cc1", "residual activity": "101%"}
{"Molecule": "CC(=O)c1ccc(N2CCOCC2)cc1O", "residual activity": "97.6%"}
{"Molecule": "Nc1ccc2ncnc(NCCc3ccc(Oc4ccccc4)cc3)c2c1", "residual activity": "90.1%"}
{"Molecule": "O=C1NC(=O)c2c1c1c3ccccc3n3c1c1c2c2ccccc2n1C1CCC3O1", "residual activity": "88.7%"}
{"Molecule": "CCOC(=O)c1c(C)[nH]c(/C=C2\\C(=O)Nc3ccccc32)c1C", "residual activity": "96.4%"}
{"Molecule": "COc1ccc(COc2ccc(Cc3cnc(N)nc3N)cc2OC)cc1", "residual activity": "110%"}
{"Molecule": "CCN(CC)C(=O)c1ccc(Nc2nc(OCC3CCCCC3)c3nc[nH]c3n2)cc1", "residual activity": "106%"}
{"Molecule": "CO[C@H]1CC2CC[C@@H](C)[C@@](O)(O2)C(=O)C(=O)N2CCCC[C@H]2C(=O)OC([C@H](C)C[C@@H]2CC[C@@H](O)[C@H](OC)C2)CC(=O)[C@H](C)/C=C(\\C)[C@@H](O)[C@@H](OC)C(=O)[C@H](C)C[C@H](C)/C=C/C=C/C=C/1C (stereo not given in full)", "residual activity": "101%"}
{"Molecule": "Cc1ccc(Nc2nccc(N(C)c3ccc4c(C)n(C)nc4c3)n2)cc1S(N)(=O)=O", "residual activity": "103%"}
{"Molecule": "Cc1ccc(S(=O)(=O)/C=C/C#N)cc1", "residual activity": "100%"}
{"Molecule": "O=S(=O)(c1cccc2cnccc12)N1CCCNCC1", "residual activity": "98.1%"}
{"Molecule": "O=C1Nc2ccc(Cl)cc2/C1=C/c1cc(Cl)c(O)c(Cl)c1", "residual activity": "84.3%"}
{"Molecule": "O=C1NC(=O)/C(=C/c2ccc3c(c2)OC(F)(F)O3)S1", "residual activity": "85.7%"}
